- SYSTEM_TESTED: human DGKα (Homo sapiens)
- Construct: TVMV protease cleavage site (C); Hexa-His (C); made in house; host or cells: Sf9 insect cells (baculovirus, Bac-to-Bac)
- Sequence (P23743 with tags, fused parts or gaps): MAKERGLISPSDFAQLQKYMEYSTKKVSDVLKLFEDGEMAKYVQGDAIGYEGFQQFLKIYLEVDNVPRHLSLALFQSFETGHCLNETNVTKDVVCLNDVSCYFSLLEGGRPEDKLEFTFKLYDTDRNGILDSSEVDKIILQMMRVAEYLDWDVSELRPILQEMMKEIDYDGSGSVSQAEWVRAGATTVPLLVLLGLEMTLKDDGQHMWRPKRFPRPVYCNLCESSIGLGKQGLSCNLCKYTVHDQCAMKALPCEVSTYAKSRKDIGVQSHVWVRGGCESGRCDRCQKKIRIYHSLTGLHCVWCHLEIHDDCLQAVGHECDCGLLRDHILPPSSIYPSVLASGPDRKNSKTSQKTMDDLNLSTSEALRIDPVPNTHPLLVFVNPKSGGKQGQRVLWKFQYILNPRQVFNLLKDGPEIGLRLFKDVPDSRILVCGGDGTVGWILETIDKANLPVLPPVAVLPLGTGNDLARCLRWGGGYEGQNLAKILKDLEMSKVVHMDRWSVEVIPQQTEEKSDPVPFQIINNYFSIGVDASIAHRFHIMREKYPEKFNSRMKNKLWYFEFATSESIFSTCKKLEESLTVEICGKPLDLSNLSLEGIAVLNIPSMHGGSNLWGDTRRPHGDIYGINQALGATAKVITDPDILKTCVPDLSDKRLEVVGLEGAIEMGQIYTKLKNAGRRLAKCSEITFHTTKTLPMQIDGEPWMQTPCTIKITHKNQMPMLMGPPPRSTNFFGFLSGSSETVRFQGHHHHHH
- PROTOCOL_TEXT: DGKα LIPGLO assay (extruded liposome substrate), in vitro DGK inhibition
- Format: biochemical
- RUN_PARAMETERS: liposome (LIPGLO) assay; read-out: DGKa LIPGLO IC50
In plain terms, low IC50, meaning strictly below 3000 nM, gives YES, and everything else gives NO.

Completed entries (count: 3):
C[C@@H]1CN(c2cc(=O)n(C)c3ccc(C#N)nc23)[C@@H](C)CN1Cc1cccc(OC(F)(F)F)c1 :: NO
C[C@@H]1CN(c2cc(=O)n(C)c3ccc(C#N)nc23)[C@@H](C)CN1C(c1ccc(OC(F)(F)F)cc1)c1ccccn1 (single isomer, unassigned) [Example 378] :: YES
Cn1c(=O)cc(N2CCN(C(c3ccc(F)cc3)c3ccc(F)cc3)C(C(=O)O)C2)c2nc(C#N)ccc21 (centres unmarked) :: NO

Field: below-cutoff. Rule: recorded IC50 strictly less than 3000 nM. Subject: COc1cc(F)ccc1C(N1C[C@H](C)N(c2cc(=O)n(C)c3ccc(C#N)nc23)C[C@H]1C)C(C)(C)C (single isomer, unassigned) [Example 186] NO

Quick check: IC50 of CC[C@H]1CN(C(c2ccc(F)cc2)c2ncccc2F)[C@H](CC)CN1c1cc(=O)n(C)c2ccc(C#N)nc12 (single isomer, unassigned) [Example 1038] under 3000 nM? YES

---

- SYSTEM_TESTED: human DGKζ (Homo sapiens)
- Construct: TVMV protease cleavage site (C); Hexa-His (C); made in house; host or cells: Sf9 insect cells (baculovirus, Bac-to-Bac)
- Sequence (Q13574 with tags, fused parts or gaps isoform Q13574-4): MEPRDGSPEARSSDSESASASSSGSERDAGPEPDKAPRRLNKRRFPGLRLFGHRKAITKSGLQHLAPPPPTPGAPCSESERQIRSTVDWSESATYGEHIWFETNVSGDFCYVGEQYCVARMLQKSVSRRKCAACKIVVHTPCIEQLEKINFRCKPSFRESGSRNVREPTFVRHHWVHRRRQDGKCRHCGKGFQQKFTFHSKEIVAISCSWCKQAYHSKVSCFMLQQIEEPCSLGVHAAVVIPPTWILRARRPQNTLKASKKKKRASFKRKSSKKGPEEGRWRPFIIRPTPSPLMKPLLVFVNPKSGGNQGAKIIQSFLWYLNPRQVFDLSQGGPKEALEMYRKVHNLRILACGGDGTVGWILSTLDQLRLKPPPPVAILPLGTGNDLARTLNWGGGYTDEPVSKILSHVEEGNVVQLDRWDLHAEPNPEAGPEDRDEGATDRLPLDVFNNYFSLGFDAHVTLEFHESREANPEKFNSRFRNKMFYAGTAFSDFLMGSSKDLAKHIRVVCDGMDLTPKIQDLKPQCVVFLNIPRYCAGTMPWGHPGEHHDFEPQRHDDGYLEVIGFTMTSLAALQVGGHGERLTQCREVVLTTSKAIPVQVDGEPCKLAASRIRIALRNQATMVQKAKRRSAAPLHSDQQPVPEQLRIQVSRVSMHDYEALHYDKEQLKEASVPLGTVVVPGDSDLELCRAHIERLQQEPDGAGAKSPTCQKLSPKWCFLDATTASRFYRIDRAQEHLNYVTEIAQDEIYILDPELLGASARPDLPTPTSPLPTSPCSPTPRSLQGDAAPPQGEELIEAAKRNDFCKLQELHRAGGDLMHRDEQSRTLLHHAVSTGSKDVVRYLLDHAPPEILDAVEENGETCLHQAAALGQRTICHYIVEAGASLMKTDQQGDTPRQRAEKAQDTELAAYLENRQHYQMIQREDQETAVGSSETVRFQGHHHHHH
- PROTOCOL_TEXT: DGKζ LIPGLO assay (extruded liposome substrate), in vitro DGK inhibition
- Type: biochemical
- RUN_PARAMETERS: DGKζ liposome (LIPGLO) assay; read-out: DGKz LIPGLO IC50
ATTRIBUTE_MEASURED: pIC50
// returns pIC50 (minus log10 of molar concentration), number only

C[C@@H]1CN(c2c(C#N)c(=O)n(C)c3ccc(C#N)nc23)CCN1C(c1ccccc1)c1cc(F)cc(F)c1 (single isomer, unassigned) [Example 875] :: 6.29
C[C@@H]1CN(c2cc(=O)n(C)c3ccc(C#N)nc23)[C@@H](C)CN1C(c1ccc(F)cc1)c1cc(C2CC2)on1 (single isomer, unassigned) [Example 730] :: 6.19
CC(c1ccc(C(=O)O)cc1)N1C[C@H](C)N(c2c(C#N)c(=O)n(C)c3ccc(C#N)nc23)C[C@H]1C (some centres unmarked) [Example 787] :: 4.08

Endpoint output: pIC50 of C[C@@H]1CN(c2c(C#N)c(=O)n(C)c3ccc(C#N)nc23)[C@@H](C)CN1C(c1ccc(F)cc1)c1cncn1C (some centres unmarked) [Example 848] . Value? 4.00

Consider the molecule shown here: C[C@@H]1CN(c2c(C#N)c(=O)n(C)c3ccc(C#N)nc23)[C@@H](C)CN1C(c1ccccc1)c1ccc(Cl)cc1 (some centres unmarked) [Example 834] What is its recorded pIC50? 5.22

Quick one: pIC50 of C[C@@H]1CN(c2c(C#N)c(=O)n(C)c3ccc(C#N)nc23)CCN1C(c1ccc(F)cc1)c1ncccc1F (single isomer, unassigned) [Example 891] ? 5.52
